The reader will find reported inhibition values listed item by item below.
- target_or_system: Neuropilin-1 (Homo sapiens) (UniProt O14786)
- Sequence (O14786 whole entry, looked up): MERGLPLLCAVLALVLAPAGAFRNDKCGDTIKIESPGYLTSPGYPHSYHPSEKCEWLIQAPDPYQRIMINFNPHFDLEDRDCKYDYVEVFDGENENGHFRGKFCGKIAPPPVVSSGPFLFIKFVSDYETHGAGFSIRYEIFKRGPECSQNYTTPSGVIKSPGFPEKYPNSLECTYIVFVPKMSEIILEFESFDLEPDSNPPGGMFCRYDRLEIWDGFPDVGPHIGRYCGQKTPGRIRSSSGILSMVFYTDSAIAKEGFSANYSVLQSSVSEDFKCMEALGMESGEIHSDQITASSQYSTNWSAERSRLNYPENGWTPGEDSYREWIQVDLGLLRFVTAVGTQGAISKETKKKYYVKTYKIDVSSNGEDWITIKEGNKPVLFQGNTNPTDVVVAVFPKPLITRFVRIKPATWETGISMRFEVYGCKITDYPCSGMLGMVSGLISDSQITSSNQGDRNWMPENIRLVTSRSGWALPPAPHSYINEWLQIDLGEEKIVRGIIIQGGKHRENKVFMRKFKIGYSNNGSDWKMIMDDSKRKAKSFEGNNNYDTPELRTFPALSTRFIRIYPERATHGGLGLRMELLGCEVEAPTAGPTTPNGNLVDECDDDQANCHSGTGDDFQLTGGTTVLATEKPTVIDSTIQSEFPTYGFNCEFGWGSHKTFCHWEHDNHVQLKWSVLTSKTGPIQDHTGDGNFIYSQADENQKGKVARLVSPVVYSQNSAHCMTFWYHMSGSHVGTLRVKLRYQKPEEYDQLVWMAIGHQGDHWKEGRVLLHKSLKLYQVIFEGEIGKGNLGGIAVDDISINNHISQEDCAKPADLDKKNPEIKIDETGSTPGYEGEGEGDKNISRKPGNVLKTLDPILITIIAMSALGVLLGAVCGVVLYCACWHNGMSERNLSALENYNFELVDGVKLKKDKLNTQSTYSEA
- assay_text: NRP-1/CendR peptide interaction modulators – biochemical, fluorescence polarization, uHTS, primary screen (AID 602438)
- assay_setup: FAM-RPARPAR peptide binding to NRP-1, fluorescence polarization; at 25 µM; active compounds read high
Among all 360,000 compounds or so, about 3,100 (0.86%) were called active. The sample as a whole holds a higher share of actives than the screen did.

{"columns": ["molecule", "inhibition (%)"],
 "data": [
  ["CCOC(=O)C1=C(N)N2C(=O)C(C)SC2=C(C(=O)OCC)C1c1cc(OC)c(OC)c(OC)c1 (stereo not given)", 6.5],
  ["COC(=O)C(Cc1c[nH]c2ccccc12)NC(=O)CCNC(=O)c1ccco1 (stereo not given)", 22.2],
  ["Cn1c(=O)cc(OCCCC(=O)N2CCN(c3ccccn3)CC2)c2ccccc21", -0.5],
  ["CCOC(=O)c1cc2n(c1N)-c1ccccc1C2=O", 29.5],
  ["Cc1cc(C)nc(NC(=O)/C=C/c2ccc(Cl)cc2)n1", 6.6],
  ["CCOCCC(=O)Nc1ccc2c(c1)c(=O)n(C)n2-c1ccc2ccccc2c1", -1.8],
  ["O=C(NCc1ccc2c(c1)OCO2)C1CCCN(S(=O)(=O)c2cccs2)C1 (stereo not given)", -10.1],
  ["O=C(NCCCCO)C(F)(F)C(F)(F)C(F)(F)C(=O)NCCCCO", 11.3],
  ["COC(=O)CCCC1=CC2=CC(=O)C(C)(OC(=O)c3cccs3)C(=O)C2=CN1CC1CC1 (stereo not given)", 36.2],
  ["COc1ccc(C)cc1N(CC(=O)NC(C)c1ccccc1)S(C)(=O)=O (stereo not given)", 3.7],
  ["Cc1n[nH]c(=O)n1-c1ccc(Oc2ccccc2)cc1", 20],
  ["Cc1nnc(CN(C)Cc2cn[nH]c2-c2ccc(-c3ccccc3)cc2)o1", -2.9],
  ["O=C(NCc1ccco1)c1ccc(NS(=O)(=O)c2cccc([N+](=O)[O-])c2)cc1", 6.8],
  ["CC(C)Oc1ccc(C(CC(=O)N2CCOCC2)C(C)C)cc1 (stereo not given)", 9],
  ["O=C(/C=C/c1cccs1)NCc1cccnc1", -0.9]
]}

----------
- target_or_system: Neuropilin-1 (Homo sapiens)
- assay_text: NRP-1/CendR peptide interaction modulators – biochemical, fluorescence polarization, uHTS, primary screen (AID 602438)
- assay_setup: FAM-RPARPAR peptide binding to NRP-1, fluorescence polarization; at 25 µM; active compounds read high
Hit rate of the full screen: of about 360,000 compounds, about 3,100 (0.86%) were called active. Many of the other results were omitted from the sample, so actives are more common in it than they were.

{"columns": ["compound", "target_or_system", "inhibition, %"],
 "data": [
  ["Cc1ccc([C@@H]2CC=C(C(=O)O)[C@H](c3cccc(Cl)c3)N2S(=O)(=O)c2ccc(C)cc2)cc1", "Neuropilin-1 (Homo sapiens)", -10.9],
  ["O=C(COC(=O)c1ccccn1)NNC(=O)c1ccc([N+](=O)[O-])cc1", "Neuropilin-1 (Homo sapiens)", 2.2],
  ["CCOC(=O)C1=CC[C@@H](c2ccccc2)N(S(=O)(=O)c2ccc(C)cc2)[C@H]1c1ccc(CC)cc1", "Neuropilin-1 (Homo sapiens)", 11.1],
  ["COCn1c(C(O)c2ccccc2)cc2ccccc21 (centres undefined)", "Neuropilin-1 (Homo sapiens)", 8.1],
  ["CC(=O)N1CC2(C)CN(C(C)=O)CC(C)(C1)C2=O", "Neuropilin-1 (Homo sapiens)", 11.7],
  ["COc1ccccc1NC(=O)COC(=O)CNC(=O)C1CCCCC1", "Neuropilin-1 (Homo sapiens)", 9.6],
  ["COc1ccc(CN2C(CC(=O)Nc3cccnc3)c3ccc(C(F)(F)F)cc3S2(=O)=O)cc1 (centres undefined)", "Neuropilin-1 (Homo sapiens)", 0.3],
  ["Cc1ccc(C(=O)Nc2ccccc2-c2ccccc2)cc1S(=O)(=O)Nc1ccccc1", "Neuropilin-1 (Homo sapiens)", 29.8],
  ["CCCCCCCCCCOC(=O)C[N+](C)(C)CC1CCCCC1O (centres undefined)", "Neuropilin-1 (Homo sapiens)", 18.2]
]}

----------
Reported inhibition values are given for each entry in this list.
- target_or_system: Neuropilin-1 (Homo sapiens) (UniProt O14786)
- assay_text: NRP-1/CendR peptide interaction modulators – biochemical, fluorescence polarization, uHTS, primary screen (AID 602438)
- assay_setup: FAM-RPARPAR peptide binding to NRP-1, fluorescence polarization; at 25 µM; active compounds read high
The campaign covered roughly 360,000 compounds. About 3,100 (0.86%) were called active. The sample as a whole holds a higher share of actives than the screen did.
measurement_kind: inhibition (%)

{"columns": ["molecule", "value_measured"],
 "data": [
  ["Cc1nn2cc(-c3ccc(Cl)cc3)cnc2c1Br", 4],
  ["CC(NC(=O)COC(=O)Cn1cc(C(F)(F)F)ccc1=O)c1ccccc1 (stereo not given)", -13.9],
  ["CC1Cc2ccccc2N1CC(=O)Nc1ccc(S(N)(=O)=O)cc1 (stereo not given)", 3.7],
  ["COC(=O)Nc1nc2ccc(Sc3ccccc3)cc2[nH]1", -0.3],
  ["Cc1ccc(S(=O)(=O)N(C)c2ccc(OCC(=O)OCc3ccc(C#N)cc3)cc2)cc1", -6.5]
]}

----------
- target_or_system: Neuropilin-1 (Homo sapiens)
- assay_text: NRP-1/CendR peptide interaction modulators – biochemical, fluorescence polarization, uHTS, primary screen (AID 602438)
- assay_setup: FAM-RPARPAR peptide binding to NRP-1, fluorescence polarization; at 25 µM; active compounds read high
Screen size: about 360,000 compounds; about 3,100 (0.86%) were called active. The list comes from a sample in which actives are over-represented; it also holds close analogues and randomly drawn compounds.
Overview of reported inhibition across a group of compounds:

{"columns": ["compound", "inhibition / %"],
 "data": [
  ["O=C1OC(Cc2ccccc2)C(c2ccccc2)C1=O (stereo unspecified)", 24.2],
  ["N#C/C=C\\Oc1ccc(Cl)cc1N", -3.7],
  ["COc1ccc(C2CC(c3cccs3)=NN2C(=O)CSc2nncs2)cc1OC (stereo unspecified)", 28.8],
  ["COc1ccccc1C(=O)COC(=O)CSCC(=O)Nc1cc(C)on1", -0.2],
  ["COc1cccc(C2=CC(=O)C[C@H](c3ccc(OC)c(OC)c3)C2)c1", -4.1],
  ["CCOC(=O)C1(O)CC(C)=NN1C(=O)c1cccc(Br)c1 (stereo unspecified)", 26.7],
  ["CCC(=O)c1ccc(OC(=O)/C=C/c2cc(OC)c(OC)c(OC)c2)cc1", 2.2],
  ["COc1cc(/C=N\\NC(=O)CNC(=O)c2cccc([N+](=O)[O-])c2)ccc1O", 21.9],
  ["Cc1csc(=O)n1CCC(=O)OCC(=O)NNC(=O)c1ccc(Br)cc1", -1.9],
  ["O=C(CSc1nnc(-c2cccs2)n1Cc1ccco1)c1ccc2c(c1)OCO2", 37.5],
  ["CC12COC3(C(=O)Nc4ccc(Cl)cn4)CC1CCC32C (stereo unspecified)", -0.2],
  ["CC(=O)NNc1cc(=O)c2c(=O)n(C)c(=O)n(C)c2[nH]1", 21.9],
  ["CSCCC(NS(=O)(=O)c1ccc(C)cc1)C(=O)N(C)CC(=O)Nc1ccccc1Br (stereo unspecified)", 3.9],
  ["COc1cc(/C=C/C2=CC(C)(C)NC(=S)N2)cc(OC)c1OC", 3.9],
  ["COc1cccc(-n2cc3c(c2-c2ccccc2)c(=O)n(C)c(=O)n3C)c1", -0.7],
  ["COc1cc(OC)cc(C(=O)NC(C(=O)N2CCC2)C(C)C)c1 (stereo unspecified)", -2.9],
  ["CC(=O)NC(CC(=O)Nc1nc(-c2ccccc2)c(C(C)=O)s1)c1ccccc1 (stereo unspecified)", -4.6],
  ["Cc1ccccc1CCN(CC(=O)NC1CCCCC1)C(=O)c1csnn1", -9.2],
  ["O=C(C1CCCN1S(=O)(=O)c1ccc(Br)cc1)N1CCOCC1 (stereo unspecified)", 6.9],
  ["Cc1ccc(CNS(=O)(=O)c2ccc3c(c2)N(C)CCO3)cc1", -8.8],
  ["O=P(c1cccs1)(c1cccs1)c1cccs1", 6.4]
]}

----------
- target_or_system: Neuropilin-1 (Homo sapiens)
- assay_text: NRP-1/CendR peptide interaction modulators – biochemical, fluorescence polarization, uHTS, primary screen (AID 602438)
- assay_setup: FAM-RPARPAR peptide binding to NRP-1, fluorescence polarization; at 25 µM; active compounds read high
About 3,100 (0.86%) of roughly 360,000 compounds were called active. Many of the other results were omitted from the sample, so actives are more common in it than they were.
Reported inhibition is given for each of the following molecules.

{"columns": ["molecule", "units_label", "inhibition"],
 "data": [
  ["Cc1c(CCO)c(=O)n(-c2ccccc2)n1S(=O)(=O)c1ccc(F)cc1", "%", -66],
  ["CCCc1cc(=O)oc2c(C)c(OCC(=O)NCc3ccccn3)ccc12", "%", -1],
  ["COc1ccc(S(=O)(=O)NC(C)C(=O)NCc2ccncc2)cc1Cl (stereo not drawn)", "%", 22.5],
  ["Cn1cccc1C1(C(F)(F)F)NCCNC1=O (stereo not drawn)", "%", -1.4],
  ["O=C1C=C(NCCNc2c(F)c(F)c(CO)c(F)c2F)CCC1", "%", -0.5],
  ["COC(=O)Cc1nc2c(N)nc(N)nc2[nH]c1=O", "%", 26.3],
  ["Cc1ccc(N(C(=O)c2ccc(CN3CCOCC3)o2)C(C(=O)NCCC(C)C)c2cccs2)c(C)c1 (stereo not drawn)", "%", 26.1],
  ["O=C1/C(=C/c2cccs2)CCC1C1CCCC1 (stereo not drawn)", "%", 2.8]
]}
